- assay_overview: Ex vivo biodistribution of 68Ga-labeled tracers in PC-3 tumor-bearing mice
- measurement_context: mouse, testes, intravenous, 100 ug; 1 h pi, blocked (100 µg blocking agent co-injected); read-out: Testes uptake
- Protocol: PET/CT imaging and biodistribution studies were conducted using male NOD.Cg-Rag1^tm1Mom Il2rg^tm1Wjl/SzJ (NRG) mice following previously published procedures. […] For ex vivo biodistribution studies, the mice were injected with the ^68Ga-labeled tracer (2–4 MBq) via a lateral caudal tail vein. […] Blood and organs/tissues of interest were collected, weighed, and counted using a gamma counter.

molecule	value_unit	tissue uptake at 1 h
CC(C)C[C@H](NC(=O)[C@H](Cc1cnc[nH]1)N(C)C(=O)CNC(=O)[C@@H](NC(=O)[C@H](C)NC(=O)[C@H](Cc1c[nH]c2ccccc12)NC(=O)[C@H](CCC(N)=O)NC(=O)[C@@H](Cc1ccccc1)NC(=O)CN1CCC(NC(=O)CN2CCN(CC(=O)O)CCN(CC(=O)O)CCN(CC(=O)O)CC2)CC1)C(C)(C)C)C(=O)N1CC(F)(F)C[C@H]1C(N)=O [[^68Ga]Ga-LW02060, metal not drawn]	%ID/g	0.76
CC(C)C[C@@H](CN1CC(F)(F)C[C@H]1C(N)=O)NC(=O)[C@H](Cc1c[nH]cn1)NC(=O)CN(C)C(=O)[C@@H](NC(=O)[C@H](C)NC(=O)[C@H](Cc1c[nH]c2ccccc12)NC(=O)[C@H](CCC(N)=O)NC(=O)[C@@H](Cc1ccccc1)NC(=O)CN1CCC(NC(=O)CN2CCN(CC(=O)O)CCN(CC(=O)O)CCN(CC(=O)O)CC2)CC1)C(C)C [[^68Ga]Ga-LW02080, metal not drawn]	%ID/g	0.63

###

compounds and their reported tissue uptake at 1 h
- assay_overview: Ex vivo biodistribution of 177Lu-labeled ligands in PC-3 tumor-bearing mice
- measurement_context: mouse, blood, intravenous, 100 ug, 1 h pi, blocked (100 µg GRPR antagonist co-injected); read-out: Blood uptake

compound	tissue uptake at 1 h (%ID/g)
CC(C)C[C@H](NC(=O)[C@H](Cc1cnc[nH]1)N(C)C(=O)CNC(=O)[C@@H](NC(=O)[C@H](C)NC(=O)[C@H](Cc1c[nH]c2ccccc12)NC(=O)[C@H](CCC(N)=O)NC(=O)[C@@H](Cc1ccccc1)NC(=O)CN1CCC(NC(=O)CN2CCN(CC(=O)O)CCN(CC(=O)O)CCN(CC(=O)O)CC2)CC1)C(C)(C)C)C(=O)N1CC(F)(F)C[C@H]1C(N)=O [[^177Lu]Lu-LW02060, metal not drawn]	0.43
CC(C)C[C@@H](CN1CC(F)(F)C[C@H]1C(N)=O)NC(=O)[C@H](Cc1c[nH]cn1)NC(=O)CN(C)C(=O)[C@@H](NC(=O)[C@H](C)NC(=O)[C@H](Cc1c[nH]c2ccccc12)NC(=O)[C@H](CCC(N)=O)NC(=O)[C@@H](Cc1ccccc1)NC(=O)CN1CCC(NC(=O)CN2CCN(CC(=O)O)CCN(CC(=O)O)CCN(CC(=O)O)CC2)CC1)C(C)C [[^177Lu]Lu-LW02080, metal not drawn]	0.74

###

- assay_overview: Ex vivo biodistribution of 177Lu-labeled ligands in PC-3 tumor-bearing mice
- measurement_context: mouse, small intestine, intravenous, 1 h pi, n = 5; read-out: Small intestine uptake
parameter_measured: tissue uptake at 1 h (%ID/g)

compound	measured_result
CC(C)C[C@H](NC(=O)[C@H](Cc1cnc[nH]1)N(C)C(=O)CNC(=O)[C@@H](NC(=O)[C@H](C)NC(=O)[C@H](Cc1c[nH]c2ccccc12)NC(=O)[C@H](CCC(N)=O)NC(=O)[C@@H](Cc1ccccc1)NC(=O)CN1CCC(NC(=O)CN2CCN(CC(=O)O)CCN(CC(=O)O)CCN(CC(=O)O)CC2)CC1)C(C)(C)C)C(=O)N1CC(F)(F)C[C@H]1C(N)=O [[^177Lu]Lu-LW02060, metal not drawn]	0.67
CC(C)C[C@@H](CN1CC(F)(F)C[C@H]1C(N)=O)NC(=O)[C@H](Cc1c[nH]cn1)NC(=O)CN(C)C(=O)[C@@H](NC(=O)[C@H](C)NC(=O)[C@H](Cc1c[nH]c2ccccc12)NC(=O)[C@H](CCC(N)=O)NC(=O)[C@@H](Cc1ccccc1)NC(=O)CN1CCC(NC(=O)CN2CCN(CC(=O)O)CCN(CC(=O)O)CCN(CC(=O)O)CC2)CC1)C(C)C [[^177Lu]Lu-LW02080, metal not drawn]	0.28

###

- assay_overview: Ex vivo biodistribution of 177Lu-labeled ligands in PC-3 tumor-bearing mice
- measurement_context: mouse, large intestine, intravenous, 24 h pi, n = 5; read-out: Large intestine uptake
parameter_measured: tissue uptake at 24 h (%ID/g)

compound	parameter_measured	measured_result
CC(C)C[C@@H](CN1CC(F)(F)C[C@H]1C(N)=O)NC(=O)[C@H](Cc1c[nH]cn1)NC(=O)CN(C)C(=O)[C@@H](NC(=O)[C@H](C)NC(=O)[C@H](Cc1c[nH]c2ccccc12)NC(=O)[C@H](CCC(N)=O)NC(=O)[C@@H](Cc1ccccc1)NC(=O)CN1CCC(NC(=O)CN2CCN(CC(=O)O)CCN(CC(=O)O)CCN(CC(=O)O)CC2)CC1)C(C)C [[^177Lu]Lu-LW02080, metal not drawn]	tissue uptake at 24 h	0.15
CC(C)C[C@H](NC(=O)[C@H](Cc1cnc[nH]1)N(C)C(=O)CNC(=O)[C@@H](NC(=O)[C@H](C)NC(=O)[C@H](Cc1c[nH]c2ccccc12)NC(=O)[C@H](CCC(N)=O)NC(=O)[C@@H](Cc1ccccc1)NC(=O)CN1CCC(NC(=O)CN2CCN(CC(=O)O)CCN(CC(=O)O)CCN(CC(=O)O)CC2)CC1)C(C)(C)C)C(=O)N1CC(F)(F)C[C@H]1C(N)=O [[^177Lu]Lu-LW02060, metal not drawn]	tissue uptake at 24 h	0.43

###

- assay_overview: Ex vivo biodistribution of 177Lu-labeled ligands in PC-3 tumor-bearing mice
- measurement_context: mouse, stomach, intravenous, 4 h pi, n = 5; read-out: Stomach uptake
molecules and their reported tissue uptake at 4 h

molecule	value_unit	tissue uptake at 4 h
CC(C)C[C@H](NC(=O)[C@H](Cc1cnc[nH]1)N(C)C(=O)CNC(=O)[C@@H](NC(=O)[C@H](C)NC(=O)[C@H](Cc1c[nH]c2ccccc12)NC(=O)[C@H](CCC(N)=O)NC(=O)[C@@H](Cc1ccccc1)NC(=O)CN1CCC(NC(=O)CN2CCN(CC(=O)O)CCN(CC(=O)O)CCN(CC(=O)O)CC2)CC1)C(C)(C)C)C(=O)N1CC(F)(F)C[C@H]1C(N)=O [[^177Lu]Lu-LW02060, metal not drawn]	%ID/g	1.2
CC(C)C[C@@H](CN1CC(F)(F)C[C@H]1C(N)=O)NC(=O)[C@H](Cc1c[nH]cn1)NC(=O)CN(C)C(=O)[C@@H](NC(=O)[C@H](C)NC(=O)[C@H](Cc1c[nH]c2ccccc12)NC(=O)[C@H](CCC(N)=O)NC(=O)[C@@H](Cc1ccccc1)NC(=O)CN1CCC(NC(=O)CN2CCN(CC(=O)O)CCN(CC(=O)O)CCN(CC(=O)O)CC2)CC1)C(C)C [[^177Lu]Lu-LW02080, metal not drawn]	%ID/g	0.02

###

- assay_overview: Ex vivo biodistribution of 177Lu-labeled ligands in PC-3 tumor-bearing mice
- measurement_context: male, NOD.Cg-Rag1^tm1Mom Il2rg^tm1Wjl/SzJ (NRG), mouse, tumor/kidney, iv, total radioactivity, 4 h pi, n = 5; read-out: Tumor/kidney uptake ratio
parameter_measured: tissue to tissue ratio at 4 h

molecule	measured_result
CC(C)C[C@H](NC(=O)[C@H](Cc1cnc[nH]1)N(C)C(=O)CNC(=O)[C@@H](NC(=O)[C@H](C)NC(=O)[C@H](Cc1c[nH]c2ccccc12)NC(=O)[C@H](CCC(N)=O)NC(=O)[C@@H](Cc1ccccc1)NC(=O)CN1CCC(NC(=O)CN2CCN(CC(=O)O)CCN(CC(=O)O)CCN(CC(=O)O)CC2)CC1)C(C)(C)C)C(=O)N1CC(F)(F)C[C@H]1C(N)=O [[^177Lu]Lu-LW02060, metal not drawn]	2.96
CC(C)C[C@@H](CN1CC(F)(F)C[C@H]1C(N)=O)NC(=O)[C@H](Cc1c[nH]cn1)NC(=O)CN(C)C(=O)[C@@H](NC(=O)[C@H](C)NC(=O)[C@H](Cc1c[nH]c2ccccc12)NC(=O)[C@H](CCC(N)=O)NC(=O)[C@@H](Cc1ccccc1)NC(=O)CN1CCC(NC(=O)CN2CCN(CC(=O)O)CCN(CC(=O)O)CCN(CC(=O)O)CC2)CC1)C(C)C [[^177Lu]Lu-LW02080, metal not drawn]	1.61

###

- assay_overview: Ex vivo biodistribution of 177Lu-labeled ligands in PC-3 tumor-bearing mice
- measurement_context: male, NOD.Cg-Rag1^tm1Mom Il2rg^tm1Wjl/SzJ (NRG), mouse, iv, total radioactivity, all time points; read-out: uptake in all other collected organs/tissues (other than tumor, pancreas, kidney)
parameter_measured: tissue uptake

compound	measured_result
CC(C)C[C@H](NC(=O)[C@H](Cc1cnc[nH]1)N(C)C(=O)CNC(=O)[C@@H](NC(=O)[C@H](C)NC(=O)[C@H](Cc1c[nH]c2ccccc12)NC(=O)[C@H](CCC(N)=O)NC(=O)[C@@H](Cc1ccccc1)NC(=O)CN1CCC(NC(=O)CN2CCN(CC(=O)O)CCN(CC(=O)O)CCN(CC(=O)O)CC2)CC1)C(C)(C)C)C(=O)N1CC(F)(F)C[C@H]1C(N)=O [[^177Lu]Lu-LW02060, metal not drawn]	< 1 %ID/g
